The reported measurements were obtained from patent US20230056252A1.

target: T1, biotinylated CD3 epsilon:delta heterodimer protein (Amsbio AMS.CDD-H52WO) (Homo sapiens (Human), UniProt P07766 23-126; P04234 22-105); assay: BLI (Octet), CD3 on SA sensor, Fab analyte;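 note: biolayer interferometry with biotinylated CD3 epsilon:delta captured on streptavidin sensors, Fab analyte at several concentrations up to 300 nM, 100 s association then 300 s dissociation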
T1 construct: also called CD3 heterodimer
Items are presented alongside their recorded koff.
Give just the number in s⁻¹; leave the unit off.

Please review the entries below; each comes with its answer.
- binder: "huSP34.7.4 Fab-HF (Fab, V domains shown, also called HC7+LC4) VH: EVQLVESGGGLVQPGGSLRLSCAASGFTFSDYAMNWVRQAPGKGLEWVGRTRSKYNNYATYYAASVKGRFTISRDDSKNSLYLQMNSLKTEDTAVYYCVRHGNFGNSYVSWFAVWGQGTLVTVSS VL: QAVVTQEPSLTVSPGGTVTLTCGSSTGAVTTSHYANWVQQKPGQAPRGLIGGTSKRAPWTPARFSGSLLGGKAALTLSGAQPEDEAEYYCALWYSALWVFGGGTKLTVL"
  unit: "s⁻¹"
  koff: 0.424
- binder: "huSP34.3.1 Fab-HF (Fab, V domains shown, also called HC3+LC1) VH: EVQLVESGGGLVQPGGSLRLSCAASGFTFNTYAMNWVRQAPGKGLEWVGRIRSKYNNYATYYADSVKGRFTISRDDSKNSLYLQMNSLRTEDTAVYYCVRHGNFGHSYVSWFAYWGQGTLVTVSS VL: QAVVTQEPSLTVSPGGTVTLTCRSSTGAVTTSNYANWVQQKPGQAPRGLIGGTNKRAPWTPARFSGSLIGDKAALTLSGAQPEDEAEYYCALWYSNLWVFGGGTKLTVL"
  unit: "s⁻¹"
  koff: 0.00366

Kindly review the next binder as well.
Q) koff for huSP34.3.6 Fab-HF (Fab, V domains shown, also called HC3+LC6) VH: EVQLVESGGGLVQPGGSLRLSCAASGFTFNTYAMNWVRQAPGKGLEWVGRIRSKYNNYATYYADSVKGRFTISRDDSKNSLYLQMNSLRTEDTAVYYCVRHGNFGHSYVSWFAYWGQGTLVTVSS VL: QAVVTQPPSLTVSPGGTVTLTCGSSTGAVTTGHYANWVQQKPGQAPRGLIGGTSNRAPGVPARFSGSLSGGKAALTISGAQPEDEAEYYCALWYSARWVFGGGTKLTVL ?
A) 0.00482
